- TESTED_TARGET: Histone-lysine N-methyltransferase EZH2 (Homo sapiens, UniProt Q15910)
- EXPERIMENT_SUMMARY: Inhibition of EZH2 Y641F mutant in PRC2 complex (unknown origin) using RKQLATKAARK(Me3)SAPATGGVKKP-NH2 peptide substrate preincubated for 30 mins followed by addition of [3H]-SAM measured after 2 hrs by Topcount scintillation proximity assay
Could you please report measured pIC50 for the items listed next?
Numbers only, as −log10 of the molar value.

Known pIC50 results, listed for orientation:
CCOC(=O)CN1CCC([C@@H](C)n2c(C)c(C(=O)NCc3c(OC)cc(C)[nH]c3=O)c3ccccc32)CC1 :: 8.60
COc1cc(C)[nH]c(=O)c1CNC(=O)c1c(C)n([C@H](C)C2CCN(CC(F)F)CC2)c2ccccc12 :: 8.42

Could I get pIC50 for every one of these entries?
1. COc1cc(C)[nH]c(=O)c1CNC(=O)c1c(C)n([C@H](C)C2CCN(C(=O)N(C)C)CC2)c2ccccc12
2. COc1cc(C)[nH]c(=O)c1CNC(=O)c1c(C)n([C@H](C)C2CCN(CC(F)(F)C(F)F)CC2)c2ccccc12
3. COc1cc(C)[nH]c(=O)c1CNC(=O)c1c(C)n([C@H](C)C2CCN(C)CC2)c2ccccc12
4. COc1cc(C)[nH]c(=O)c1CNC(=O)c1c(C)n([C@H](C)C2CCNCC2)c2ccccc12

[A]
8.05
8.48
8.77
8.41

src = BindingDB's records for doi:10.1021/acs.jmedchem.6b01315
